Below: a set of entries, each annotated with reported IC50.
Assay system: Human PKMYT1 (Homo sapiens)
Construct: Human PKMYT1 75-362 was cloned as a TEV cleavable 6xHis fusion; 6xHis (TEV cleavable) (cleaved yes); made in house; host or cells: bacterial cells
Sequence (Q99640 75-362): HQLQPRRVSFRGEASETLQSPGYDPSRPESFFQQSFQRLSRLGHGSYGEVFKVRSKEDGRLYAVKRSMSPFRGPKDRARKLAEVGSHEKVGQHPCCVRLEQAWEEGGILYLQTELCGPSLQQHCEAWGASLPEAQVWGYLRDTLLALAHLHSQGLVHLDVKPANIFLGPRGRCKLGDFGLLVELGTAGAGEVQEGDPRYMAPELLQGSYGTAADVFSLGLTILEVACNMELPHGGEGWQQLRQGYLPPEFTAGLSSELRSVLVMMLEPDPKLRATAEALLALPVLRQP
Experiment notes: PKMYT1 biochemical ADP-Glo enzymatic assay
Experimental context: PKMYT1 kinase domain 15 nM; ADP-Glo; banded values
Description: Human PKMYT1 75-362 was cloned as a TEV cleavable 6xHis fusion in bacterial cells. After purification on a Ni++HiTrap Chelating HP column, the His-tag was cleaved using TEV protease. […] PKMYT1 biochemical assay: Inhibition of PKMYT1 was assessed using the ADP-Glo™ Max Detection System from Promega. […] Inhibition of PKMYT1 by small molecule inhibitors results in a retardation of luminescence above background. The intrinsic ATPase activity of PKMYT1 was assessed according to the following protocol. […]

Compound: CCOc1ccc(Nc2ncc(C(=O)Nc3c(C)ccc(O)c3C)s2)cc1 [BAA-503]
Assay result: 50 to 1000 nM

## Input What does the record list as IC50 for Cc1ccc(O)c(C)c1NC(=O)c1cnc(Nc2nn(C)cc2Cl)s1 [BAA-541] ?
## Output < 50 nM

## Input Next record, please: CCN(CC)C(=O)C(C)n1cc(C)c(Nc2ncc(C(=O)Nc3c(C)ccc(O)c3C)s2)n1 (centres unmarked) [BAA-510]
## Output < 50 nM

## Input Next record, please: Cc1cc(Nc2ncc(C(=O)Nc3c(C)ccc(O)c3C)s2)ncn1 [BAA-580]
## Output < 50 nM

## Input Next record, please: Cc1cn(C(CO)C(=O)N2CCCC2)nc1Nc1ncc(C(=O)Nc2c(C)ccc(O)c2C)s1 (centres unmarked) [BAA-583]
## Output < 50 nM

* * *

Assay system: WEE1 (Homo sapiens)
Construct: purchased Thermo Fisher PR7373A
Sequence (P30291 whole entry): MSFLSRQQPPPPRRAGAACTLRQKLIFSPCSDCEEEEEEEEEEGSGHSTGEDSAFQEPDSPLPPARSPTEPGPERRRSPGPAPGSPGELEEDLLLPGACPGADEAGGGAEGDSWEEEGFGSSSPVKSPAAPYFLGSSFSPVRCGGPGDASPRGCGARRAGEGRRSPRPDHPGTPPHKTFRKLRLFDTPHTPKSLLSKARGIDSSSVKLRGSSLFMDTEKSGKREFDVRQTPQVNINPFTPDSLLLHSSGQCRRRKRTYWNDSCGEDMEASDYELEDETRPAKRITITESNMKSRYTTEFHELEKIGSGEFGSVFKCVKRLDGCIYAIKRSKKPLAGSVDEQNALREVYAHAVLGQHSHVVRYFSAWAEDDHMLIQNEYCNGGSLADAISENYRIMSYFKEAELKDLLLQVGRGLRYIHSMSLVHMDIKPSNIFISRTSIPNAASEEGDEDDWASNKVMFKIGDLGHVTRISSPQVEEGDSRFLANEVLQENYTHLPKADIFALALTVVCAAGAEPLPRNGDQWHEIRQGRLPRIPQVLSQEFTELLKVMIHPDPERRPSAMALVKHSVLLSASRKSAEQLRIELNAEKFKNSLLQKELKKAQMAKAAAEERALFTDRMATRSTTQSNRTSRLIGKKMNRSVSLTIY
Experiment notes: Selectivity versus WEE1 assay (ADP-Glo enzymatic assay)
Assay type: biochemical
Experimental context: fold difference in selectivity for PKMYT1 over WEE1; banded; ">N" = at least in this band but could be higher
Quantity kind: PKMYT1 vs. WEE1 selectivity

Use the examples below as a reference point.
Molecule: Cc1cn(S(=O)(=O)c2ccccc2)nc1Nc1ncc(C(=O)Nc2c(C)ccc(O)c2C)s1
PKMYT1 vs. WEE1 selectivity: X (100-<1000 fold)
//
Molecule: Cc1cn(-c2scnc2C)nc1Nc1ncc(C(=O)Nc2c(C)ccc(O)c2C)s1
PKMYT1 vs. WEE1 selectivity: X (100-<1000 fold)
//
Molecule: Cc1ccc(O)c(C)c1NC(=O)c1cnc(Nc2ccn(CCCO)n2)s1
PKMYT1 vs. WEE1 selectivity: W (10-<100 fold)
//
Molecule: Cc1ccc(O)c(C)c1NC(=O)c1cnc(Nc2ccn(CC(=O)N3CC(F)(F)C3)n2)s1
PKMYT1 vs. WEE1 selectivity: Y (1000-5000 fold)

## Input What does the record list as PKMYT1 vs. WEE1 selectivity for Cc1ccc(O)c(C)c1NC(=O)c1cnc(Nc2ccn(CC3CCOC3)n2)s1 (centres unmarked) ?
## Output W (10-<100 fold)

## Input Next record, please: Cc1ccc(O)c(C)c1NC(=O)c1cnc(NCCC(=O)N2CCOCC2)s1
## Output >X (100-<1000 fold)

## Input Next record, please: Cc1ccc(O)c(C)c1NC(=O)c1cnc(Nc2ccn(CC(=O)NC3CCCCC3)n2)s1
## Output Y (1000-5000 fold)

## Input Next record, please: Cc1ccc(O)c(C)c1NC(=O)c1cnc(NCC2CCN(C(=O)CC(C)(C)C)CC2)s1
## Output >X (100-<1000 fold)

## Input Next record, please: Cc1cn(CC(=O)N2CCCC2)nc1Nc1ncc(C(=O)Nc2c(C)ccc(O)c2C)s1
## Output X (100-<1000 fold)

Data credit: patent US20260297042A1
